Experiment: HepG2 cytotoxicity, primary screen, cytotoxicity control for P. falciparum antimalarial project, cell-based, ATP luminescence (AID 2303);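 also: 0% = DMSO wells and 100% = digitonin-killed cells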
Details: HepG2 viability, 24-48 h, at 10 µM, stronger effect = higher value
METRIC_NAME: inhibition (%)
Report the figure in % without appending any unit label.

Some compounds with recorded inhibition:
compound=O=C(/C=C/c1ccc(Cl)cc1)NCCCCCN1CCCN(C(=O)Nc2ccc(Cl)c(C(F)(F)F)c2)CC1 metric_name=inhibition recorded_number=54
compound=Cc1cc(C)n2nc(C(=O)Nc3cc(C(F)(F)F)ccc3N3CCOCC3)nc2n1 metric_name=inhibition recorded_number=2
compound=CCOc1ccc(NC(=O)c2cccc(CN3CCCN(Cc4cccc(O)c4)CC3)c2)cc1 metric_name=inhibition recorded_number=22
compound="CCC(CC(C)C(=O)O)=C(c1ccccc1)c1ccccc1 (stereo not given)" metric_name=inhibition recorded_number=12
compound=Cc1cccc2[nH]c(-c3ccc(-c4ccc(CNCc5cccc(N)c5)cc4)cc3)nc12 metric_name=inhibition recorded_number=12

**Q:** Find the recorded inhibition belonging to `COc1ccc2c(NN=Cc3ccccc3Cl)ccnc2c1` and report it.
**A:** 10

**Q:** Quick one: inhibition of `CCCCCC(C)(C)NC[C@@H](O)[C@H](Cc1ccccc1)NC(=O)c1cc(NCC)cc(N2CCCC2=O)c1` ?
**A:** 9

**Q:** # get_value(readout='inhibition', item= CC(CN(C)C)C(=O)Nc1ccc(-c2cccc(-c3nc4ccc(C(F)(F)F)cc4[nH]3)c2)cc1 (stereo not given) )
**A:** 30

**Q:** What value of measured inhibition is listed for Cc1cc(NC(=O)NCCN2CCC(NS(=O)(=O)c3ccc(C(F)(F)F)cc3)C2)c2ccccc2n1 (stereo not given) ?
**A:** 15

**Q:** Quick one: inhibition of `Cc1cc(NCCc2ccccc2)nc(/N=C(\N)Nc2ccccc2Cl)n1` ?
**A:** 20

Source listed as PubChem BioAssay.
